# System: HT29 colon
# protocol-summary: NCI tumour cell line growth inhibition, 48 h; in the data active = GI50 below about 0.43 µM; inactive = the rest
Write down one outcome, taken from active, inactive

**Q:** Could you kindly confirm the outcome this assay logged for CCOC(=O)/C=C/C(=O)[C@H](CC(C)C)NC(=O)[C@H](Cc1ccccc1)NC(=O)OCc1ccccc1 ?
**A:** inactive

**Q:** Could you kindly confirm the outcome this assay logged for COc1ccc(C(CC(=O)c2ccccc2)C(C(=O)c2ccccc2)C(c2ccc(OC)cc2)C2C(=O)NC(=S)NC2=O)cc1 (centres undefined) ?
**A:** inactive

**Q:** Could you kindly confirm the outcome this assay logged for O=C(C[P+](c1ccccc1)(c1ccccc1)c1ccccc1)C[P+](c1ccccc1)(c1ccccc1)c1ccccc1 ?
**A:** active

**Q:** Could you kindly confirm the outcome this assay logged for CNS(=O)(=O)OCC1OC(n2cnc3c(N)ncnc32)C(O)C1O (centres undefined) ?
**A:** inactive
